System: CAKI-1
Assay: NCI tumour cell line growth inhibition, 48 h
Calls of active or inactive are those of the source. No stated cut-off is given here; in the data, active = GI50 up to about 1.1 µM and inactive = higher.
A correct response names exactly one class from active, inactive

As a guide, the following entries are already answered.
COMPOUND | ASSIGNED CLASS
Cc1ccc([C@@H]2[C@@H](C(=O)c3ccccn3)[C@H](c3ccc(C)cc3)C[C@](O)(c3ccccn3)[C@H]2C(=O)c2ccccn2)cc1 | inactive
O=C1NC(Nc2cccc(Cl)c2)=N/C1=C\c1ccc(Cl)c(Cl)c1 | inactive
COC(C(O)CO)C(O)C(O)C(=O)NNc1ccccc1 (stereo not given) | inactive
O=C1CCCC(=O)N1CCc1c[nH]c2ccccc12 | inactive
COc1c2cc([N+](=O)[O-])cc1CN(C(=O)C(F)(F)F)CCOCCN(C(=O)C(F)(F)F)C2 | inactive
Fc1ccccc1C1CC(C(c2ccccc2)c2ccccc2)=Nc2ccccc2S1 (stereo not given) | inactive
O=C(/C=C/c1ccccc1)CSc1nc2ccc(I)cc2c(=O)n1Cc1ccccc1 | inactive
CCOC(=O)[C@H]1C[C@]23CN(C(=O)OC(C)(C)C)CC[C@H]2CCC2(SCCCS2)[C@@H]3N1C | inactive
Nc1ncnc2c1ncn2C(=O)NC12CC3CC(CC(C3)C1)C2 | inactive
COC(=O)[C@H](Cc1ccccc1)NC(=O)c1ccc(CNC(=O)/C=C/c2ccc(OCc3ccccc3)cc2)cc1 | inactive

### Prompt What did this assay record as the result for Nc1ccccc1/N=C/c1cc2cc([N+](=O)[O-])ccc2s1 ?
### Response inactive

### Prompt What did this assay record as the result for Nc1ccc2ncc(Nc3ccc(Cl)c(Cl)c3)nc2c1 ?
### Response inactive

### Prompt What did this assay record as the result for COC12COC(=O)C1C(c1ccc3c(c1)OCO3)c1cc3c(cc1O2)OCO3 (stereo not given) ?
### Response inactive

### Prompt What did this assay record as the result for O=C(/C=C\c1cccc2ccccc12)c1ccc(F)cc1 ?
### Response inactive

### Prompt What did this assay record as the result for O=C1C[C@H](COCc2ccccc2)NC(=O)C[C@H](COCc2ccccc2)NC(=O)C[C@H](COCc2ccccc2)N1 ?
### Response inactive

### Prompt What did this assay record as the result for CC(=O)c1c(O)ccc2c1CC(CC=O)O2 (stereo not given) ?
### Response inactive

### Prompt What did this assay record as the result for COC1C(CN[N+](=O)CC2OC3OC(C)(C)OC3C2OC)OC2OC(C)(C)OC21 (stereo not given) ?
### Response inactive

### Prompt What did this assay record as the result for NC(=S)N/N=C1\CCCC1C(O)(C(F)(F)Cl)C(F)(F)Cl (stereo not given) ?
### Response inactive

### Prompt What did this assay record as the result for COc1ccc(NC(=O)N(C)CC2(O)CCC(C(C)(C)C)CC2)cc1 (stereo not given) ?
### Response active

### Prompt What did this assay record as the result for O=c1cc(-c2ccccc2)oc2ccc(Oc3nnnn3-c3ccccc3)cc12 ?
### Response inactive
